assay: Determination of the logP values by HPLC on reversed-phase column (C 18); assay type: physicochemical; settings: 0.1% aqueous phosphoric acid/acetonitrile; method [a]: 0.1% aqueous phosphoric acid and acetonitrile at pH 2.3; linear gradient from 10 to 95 % (v/v) acetonitrile; HPLC reversed-phase C 18, 40 °C
So basically: chromatographic logP at 3 or higher? That is met. Lower than 3? That is not met.

Worked examples follow.
{"COMPOUND": "Cc1c(NC(=O)c2cccc(Cl)c2C(=O)N[C@@H](C)C[S+](C)[O-])ccc(C(C(F)(F)F)C(F)(F)F)c1F (stereo partly shown)", "CLASS_LABEL": "not met"}
{"COMPOUND": "CCSC[C@H](C)NC(=O)c1c(I)cccc1C(=O)Nc1ccc(C(F)(C(F)(F)F)C(F)(F)Br)cc1C (stereo partly shown)", "CLASS_LABEL": "met"}
{"COMPOUND": "Cc1cc(C(F)(C(F)(F)F)C(F)(F)F)ccc1NC(=O)c1cccc(I)c1C(=O)N[C@@H](C)CS(C)(=O)=O", "CLASS_LABEL": "met"}
{"COMPOUND": "CSC[C@H](C)NC(=O)c1c(I)cccc1C(=O)Nc1ccc(C(F)(F)C(F)(F)F)c(Cl)c1C", "CLASS_LABEL": "met"}

Here is another compound to look at.
Ask: Does Cc1c(NC(=O)c2cccc(I)c2C(=O)N[C@@H](C)CS(C)(=O)=O)ccc(C(F)(C(F)(F)F)C(F)(F)F)c1F have a reported chromatographic logP of at least 3?
Result: met

----------
experiment: Determination of the logP values by HPLC on reversed-phase column (C 18); assay type: physicochemical; details: 0.001 m aqueous nh4hco3/acetonitrile; HPLC, reversed-phase C 18, 40 °C; [c] 0.001 molar aqueous NH4HCO3 solution and acetonitrile at pH 7.8; linear gradient from 10 % to 95 % acetonitrile (v/v)
READOUT_NAME: chromatographic logP
Note: the reply should be a number with no unit written.

Below are worked cases with known answers.
{"COMPOUND": "C[C@@H](CS(C)(=O)=O)NC(=O)c1c(I)cccc1C(=O)Nc1ccc(C(C(F)F)C(F)(F)F)cc1Cl (stereo partly drawn)", "ASSAY_RESULT": 2.72}
{"COMPOUND": "CCSC[C@H](C)NC(=O)c1c(I)cccc1C(=O)Nc1ccc(C(C(F)F)C(F)(F)F)cc1C (stereo partly drawn)", "ASSAY_RESULT": 3.62}
{"COMPOUND": "C[C@@H](CS(C)(=O)=O)NC(=O)c1c(I)cccc1C(=O)Nc1ccc(C(C(F)F)C(F)(F)F)cc1Br (stereo partly drawn)", "ASSAY_RESULT": 2.76}

Ask: # return recorded chromatographic logP for entry CCS(=O)(=O)C[C@H](C)NC(=O)c1c(I)cccc1C(=O)Nc1ccc(C(F)(C(F)F)C(F)(F)F)cc1F (stereo partly drawn)
Result: 2.94

Ask: # return recorded chromatographic logP for entry CCS(=O)(=O)C[C@H](C)NC(=O)c1c(I)cccc1C(=O)Nc1ccc(C(F)(C(F)(F)F)C(F)(F)Br)cc1C (stereo partly drawn)
Result: 3.47

Ask: # return recorded chromatographic logP for entry CCSC[C@H](C)NC(=O)c1c(I)cccc1C(=O)Nc1ccc(C(C(F)F)C(F)(F)F)cc1F (stereo partly drawn)
Result: 3.57

Ask: # return recorded chromatographic logP for entry CCSC[C@H](C)NC(=O)c1c(I)cccc1C(=O)Nc1ccc(C(C(F)F)C(F)(F)F)cc1Br (stereo partly drawn)
Result: 3.8
